From: ChEMBL document CHEMBL4513216

System: Plasmodium berghei
measurement_notes: Screen against P. berghei liver stage (PbLuc), transformed with Luciferase, at 10uM
Type: functional, HepG2
condition_parameters: tested at 10 uM
About 8,600 (12%) of roughly 69,000 compounds showed an effect of 50% or more. For the sample, strong results were picked, then their nearest neighbours and some compounds at random.
Examples of compounds with documented INHIBITION follow.
Give the figure together with its unit, number first.

Input: Which INHIBITION is listed for CCS(=O)(=O)N1CCC2(CC1)CCn1c(-c3cnn(C)c3)cnc12 ?
Output: -65.4%

Input: Now give it for COC(=O)C1CCCN1C(=O)c1cc(CC(C)C)no1 (stereo unspecified) too.
Output: -4.51%

Input: Then Cc1ccc2c(c1)C(NC(=O)N(C)C)CC21CCN(C)CC1 (stereo unspecified) ?
Output: -24.1%

Input: Also check CO[C@@H]1CCC[C@@H](N(C)C(=O)c2cn3cc(C)ccc3n2)[C@H]1O
Output: -11.125%

Input: What do you get for COc1c(NC(=O)N(C)CCOc2ccccc2)c(C)nn1C ?
Output: -24.6%

Shift focus to the following entry.
Input: What does the record list as INHIBITION for Cc1cc(-c2cnn(CCNC(=O)CCn3cccn3)c2C2CC2)on1 ?
Output: -1.85%
